# Tested on: T-47D spheroids with HUVEC/MSC, viability
# MEASUREMENT DESCRIPTION: Anticancer human tumor T-47D cell line growth inhibition [PI3K];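 also: spheroids exposed to agents for seven days before reading; percent of DMSO vehicle control luminescence so 100% = untreated growth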
# TEST CONTEXT: second compound 0.0316 µM; first compound 0.0316 µM; hits give low values
VALUE TYPE: viability, T/C (%)
One number for each entry, in %.

List viability, T/C for every entry below, keeping the order given.
1. Cn1ncc(Cl)c1-c1cc(C(=O)NC(CN)Cc2cccc(F)c2)sc1Cl (stereo unspecified) + CC(Nc1ncnc2nc[nH]c12)c1cc2cccc(Cl)c2c(=O)n1-c1ccccc1
2. Cn1ncc(Cl)c1-c1cc(C(=O)NC(CN)Cc2cccc(F)c2)sc1Cl (stereo unspecified) + Cc1nc(NC(=O)N2CCCC2C(N)=O)sc1-c1ccnc(C(C)(C)C(F)(F)F)c1
3. CNC(=O)c1ccc(N2C(=S)N(c3ccc(C#N)c(C(F)(F)F)c3)C(=O)C2(C)C)cc1F + COc1c(OCCCN2CCOCC2)ccc2c3n(c(=NC(=O)c4cnc(N)nc4)nc12)CCN3
4. CC(Cn1ccc(-c2ccc(C#N)c(Cl)c2)n1)NC(=O)c1cc(C(C)O)[nH]n1 (stereo unspecified) + CC(Nc1ncnc2nc[nH]c12)c1cc2cccc(Cl)c2c(=O)n1-c1ccccc1
5. C[C@@H](NC(=O)c1ncnc(N)c1Cl)c1ncc(C(=O)Nc2cc(C(F)(F)F)c(Cl)cn2)s1 + COc1c(OCCCN2CCOCC2)ccc2c3n(c(=NC(=O)c4cnc(N)nc4)nc12)CCN3

OUT:
1: 101; 2: 107; 3: 72.3; 4: 83.6; 5: 66.1

List viability, T/C for every entry below, keeping the order given.
1. C=CC(=O)N1CCN(c2nc(=O)n(-c3c(C)ccnc3C(C)C)c3nc(-c4c(O)cccc4F)c(F)cc23)C(C)C1 (stereo unspecified) + CC(Nc1ccc2c(c1)OCCn1cc(N3C(=O)OCC3C(F)F)nc1-2)C(N)=O
2. C#Cc1c(F)ccc2cc(O)cc(-c3ncc4c(N5CC6CCC(C5)N6)nc(OCC56CCCN5CC(F)C6)nc4c3F)c12 (stereo unspecified) + CC(Nc1ccc2c(c1)OCCn1cc(N3C(=O)OCC3C(F)F)nc1-2)C(N)=O

OUT:
[99, 83.3]

List viability, T/C for every entry below, keeping the order given.
1. CNC(=O)c1ccc(N2C(=S)N(c3ccc(C#N)c(C(F)(F)F)c3)C(=O)C2(C)C)cc1F + Cc1nc(NC(=O)N2CCCC2C(N)=O)sc1-c1ccnc(C(C)(C)C(F)(F)F)c1
2. CCN1CCN(Cc2ccc(Nc3ncc(F)c(-c4cc(F)c5nc(C)n(C(C)C)c5c4)n3)nc2)CC1 + COc1c(OCCCN2CCOCC2)ccc2c3n(c(=NC(=O)c4cnc(N)nc4)nc12)CCN3
3. CC(C)NCC(C(=O)N1CCN(c2ncnc3c2C(C)CC3O)CC1)c1ccc(Cl)cc1 (stereo unspecified) + Cc1nc(NC(=O)N2CCCC2C(N)=O)sc1-c1ccnc(C(C)(C)C(F)(F)F)c1
4. CC(=O)c1c(C)c2cnc(Nc3ccc(N4CCNCC4)cn3)nc2n(C2CCCC2)c1=O + COc1c(OCCCN2CCOCC2)ccc2c3n(c(=NC(=O)c4cnc(N)nc4)nc12)CCN3

OUT:
113
41.2
85.2
51.8
